// data source = the supplement of paper PMC12669032

Recorded growth AUC for the following compounds
Tested on: Bacteroides thetaiotaomicron
METHOD: growth AUC relative to DMSO control (median of replicates) (fraction); higher = more growth (less inhibition), active = hit call of the paper
STATED CONDITIONS: 20 µM; 24 h
Reply: number alone, nothing else.

Answered cases to consult:
COMPOUND | EXPERIMENTAL ENDPOINT | RESULT NUMBER
ClC=C(c1ccc(Cl)cc1)c1ccc(Cl)cc1 | growth AUC | 0.975
Nc1ccc(O)cc1 | growth AUC | 1.01
CCC([O-])=C1C(=O)CC(C(=O)[O-])CC1=O.[Ca+2] (stereo unspecified) | growth AUC | 0.958
CO/N=C(/C(=O)O)c1ccccc1CO/N=C(\C)c1cccc(C(F)(F)F)c1 | growth AUC | 0.795
CN1CCC[C@H]1c1cccnc1 | growth AUC | 0.984

--- query ---
Q: Form field: reported growth AUC of "CCOc1ccc2c(c1)C(C)=CC(C)(C)N2"
A: 0.995
